Item-by-item account of Minimal Inhibitory Concentration (MIC) Resistant
test system: Enterococcus faecium and faecalis (RESISTANT); conditions: geometric mean of 4-6 isolates
metric: Minimal Inhibitory Concentration (MIC) Resistant

# compound, reported measurement
measured = [
    ("CC1OC(OC2c3ccc(c(Cl)c3)Oc3cc4cc(c3OC3OC(CO)C(O)C(O)C3O)Oc3ccc(cc3Cl)C(O)C(N)C(=O)NC(CC(N)=O)C(=O)NC4C(=O)NC3C(=O)NC2C(=O)NC(C(=O)O)c2cc(O)cc(O)c2-c2cc3ccc2O)CC(C)(N)C1O (stereo not drawn)", "> 128"),
    ("CC1OC(OC2c3ccc(c(Cl)c3)Oc3cc4cc(c3OC3OC(CO)C(O)C(O)C3OC3CC(C)(N)C(O)C(C)O3)Oc3ccc(cc3Cl)C(O)C(N)C(=O)NC(CC(N)=O)C(=O)NC4C(=O)NC3C(=O)NC2C(=O)NC(C(=O)O)c2cc(O)cc(O)c2-c2cc3ccc2O)CC(C)(N)C1O (stereo not drawn) [Example 1, DESLEUCYL-A82846B]", "> 128"),
    ("CC1OC(OC2c3ccc(c(Cl)c3)Oc3cc4cc(c3OC3OC(CO)C(O)C(O)C3OC3CC(C)(NCc5ccc(Cl)cc5)C(O)C(C)O3)Oc3ccc(cc3Cl)C(O)C(N)C(=O)NC(CC(N)=O)C(=O)NC4C(=O)NC3C(=O)NC2C(=O)NC(C(=O)O)c2cc(O)cc(O)c2-c2cc3ccc2O)CC(C)(N)C1O (stereo not drawn)", "> 81"),
]
